B1: BTBD10 (parent)
chain: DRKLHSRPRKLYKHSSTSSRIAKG

# Variants of: B1
# PROCEDURE TEXT: protein stability index of a GFP-peptide fusion (GPS, HEK-293T) (PSI 1-6); higher = more stable;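 further: lentivirally expressed fusions sorted by FACS into six bins by GFP to DsRed ratio, PSI derived from sequencing read proportions per bin multiplied by bin number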
# RUN CONDITIONS: c terminus: a fixed tail appended
PARAMETER: protein stability index
Give bare numbers.

# MUTATION ID, protein stability index
rows = [
    ("T17M", 3.28),
]

Quick one: give me protein stability index for each item below, same order please.
1. K3N
2. G24W
3. K10H

3.55
2.65
4.07

List the reported protein stability index of each variant below.
1. T17F
2. Y12N
3. P8F
4. K10Q
5. R9T
6. Y12P
7. H14L
8. A22Y

1. 3.24
2. 4.12
3. 2.21
4. 4.08
5. 3.84
6. 4.15
7. 3.4
8. 3.7

Below is a list of variants. For each, state its recorded protein stability index.
1. K13W
2. S19F
3. D1M
4. K3P
5. G24I
6. A22V

3.55
3.23
3.8
3.92
3.21
3.71

For each of the variants below, note its protein stability index.
1. G24S
2. K3D

[3.65, 4.42]

Okay, here is my list. What is protein stability index for each of these?
1. S6C
2. P8W
3. R7P

1. 3.43
2. 3.95
3. 4.33

List protein stability index for every entry below, keeping the order given.
1. S19D
2. H14C
3. H5V
4. P8V
5. K3H

3.93
4.41
3.02
3.05
4.41

Go through the items and report each one's protein stability index.
1. P8H
2. S16Y
3. H5A
4. S18C
5. D1L
6. L11W
7. G24P
8. K23L

[4.12, 3.45, 4.22, 3.27, 3.2, 3.67, 4.05, 3]

Items follow; give protein stability index for each.
1. S19E
2. T17P
3. K3F
4. Y12T

[4.42, 3.88, 3.24, 4.05]
